Data provenance is patent US20230011269A1.

Test: aqueous equilibrium solubility at 37° C.
Type: physicochemical
Conditions: aqueous media, pH 3, aqueous buffer, thermodynamic from solid, Citrate pH 3.0, pH initial 3.0, pH (48 h) 2.8, read-out: Solubility after 48 hours
METRIC: solubility at 48 h
Answer with the value and then the unit.

Query: Reported solubility at 48 h for CC(C)(Sc1ccncc1-c1ccc(C#N)c2ccccc12)C(=O)O : what is it?
Reply: 65 µg/mL

* * *

Assay: Phase 1 single dose study, immediate release formulations: plasma pharmacokinetics
Format: in vivo, human
Conditions: male, human, plasma, oral, 40 mg, 40 mg single dose, Fasted, 2 × 20 mg tablet, Group 2, N = 6; Geomean; read-out: AUC0-24
From the text: A phase 1, randomized, double-blind, placebo-controlled study in healthy adult male volunteers evaluated single rising doses and the preliminary food effect for 2-((3-(4-cyanonaphthalen-1-yl)pyridine-4-yl)thio)-2-methylpropanoic acid at 6 dose groups with 8 subjects per group. […] Subjects in each dose group were randomized to receive a single dose of either 2-((3-(4-cyanonaphthalen-1-yl)pyridine-4-yl)thio)-2-methylpropanoic acid (6 subjects) or placebo (2 subjects). […]
METRIC: AUC(0-t) (ng·h/mL)
Answers are plain numbers, in ng·h/mL.

Query: Which AUC(0-t) is listed for CC(C)(Sc1ccncc1-c1ccc(C#N)c2ccccc12)C(=O)O ?
Reply: 1070

* * *

Test: aqueous equilibrium solubility at 37° C.
Format: physicochemical
Conditions: aqueous media, pH 5, aqueous buffer, thermodynamic from solid, Citrate pH 5.0, pH initial 5.0, pH (24 h) 5.0, read-out: Solubility after 24 hours
METRIC: solubility at 24 h (µg/mL)
Numbers only, in µg/mL.

Query: For CC(C)(Sc1ccncc1-c1ccc(C#N)c2ccccc12)C(=O)O , what is its reported solubility at 24 h?
Reply: 97

* * *

Assay: aqueous equilibrium solubility at 37° C.
Type: physicochemical
Details: aqueous media, pH 11.7, aqueous buffer, thermodynamic from solid, 0.3N NaOH, pH initial 13.2, pH (24 h) 11.7, read-out: Solubility after 24 hours
METRIC: solubility at 24 h (mg/mL)
One number for each entry, in mg/mL.

Query: Could you share which solubility at 24 h value was measured for CC(C)(Sc1ccncc1-c1ccc(C#N)c2ccccc12)C(=O)O ?
Reply: 87.8

* * *

Assay: aqueous equilibrium solubility at 37° C.
Type: physicochemical
Settings: aqueous media, pH 7.1, aqueous buffer, thermodynamic from solid, 0.1N NaOH, pH initial 12.8, pH (24 h) 7.1, read-out: Solubility after 24 hours
METRIC: solubility at 24 h (mg/mL)
One number for each entry, in mg/mL.

Query: Entry CC(C)(Sc1ccncc1-c1ccc(C#N)c2ccccc12)C(=O)O has what solubility at 24 h?
Reply: 31.9

* * *

Assay: Phase 1 study of MR formulations MR1-5: plasma pharmacokinetics
Format: in vivo
Settings: male, human, oral, 5 mg, MR1-MR5 formulations, fasted and fed (Table 9), read-out: average terminal half-life
METRIC: half-life

Query: half-life for CC(C)(Sc1ccncc1-c1ccc(C#N)c2ccccc12)C(=O)O ?
Reply: 10 to 28 h

* * *

Experiment: Phase 1 single dose study, immediate release formulations: plasma pharmacokinetics
Assay type: in vivo, human
Conditions: male, human, plasma, po, 5 mg; read-out: geometric mean maximum plasma concentration (Cmax)
METRIC: Cmax

Query: Can you share its Cmax? I mean this molecule: CC(C)(Sc1ccncc1-c1ccc(C#N)c2ccccc12)C(=O)O
Reply: ~73 ng/mL

* * *

Assay: aqueous equilibrium solubility at 37° C.
Type: physicochemical
Settings: aqueous media, pH 6.8, aqueous buffer, thermodynamic from solid, Potassium phosphate pH 6.8, pH initial 6.9, pH (24 h) 6.6, read-out: Solubility after 24 hours
METRIC: solubility at 24 h (µg/mL)
Give bare numbers, in µg/mL.

Query: Any idea what solubility at 24 h was measured for CC(C)(Sc1ccncc1-c1ccc(C#N)c2ccccc12)C(=O)O ?
Reply: 2370

* * *

Test: Phase 1 single dose study, immediate release formulations: plasma pharmacokinetics
Format: in vivo, human
Conditions: male, human, plasma, oral, 20 mg, 20 mg/Fasted, immediate release; read-out: AUC0-24
METRIC: AUC(0-t)
Please state the number and follow it with the unit.

Query: GET /values?readout=AUC(0-t)&item= CC(C)(Sc1ccncc1-c1ccc(C#N)c2ccccc12)C(=O)O
Reply: 463 ng·h/mL

* * *

Test: Phase 1 single dose study, immediate release formulations: plasma pharmacokinetics
Type: in vivo, human
Settings: 5 mg/Fasted, immediate release; read-out: Cmax
METRIC: Cmax (ng/mL)
One number for each entry, in ng/mL.

Query: Reported Cmax for CC(C)(Sc1ccncc1-c1ccc(C#N)c2ccccc12)C(=O)O : what is it?
Reply: 72.9

* * *

Assay: aqueous equilibrium solubility at 37° C.
Type: physicochemical
Conditions: aqueous media, pH 5.4, water, thermodynamic from solid, Water, pH initial 6.3, pH (24 h) 5.4, read-out: Solubility after 24 hours
METRIC: solubility at 24 h (µg/mL)
Numbers only, in µg/mL.

Query: # input compound: CC(C)(Sc1ccncc1-c1ccc(C#N)c2ccccc12)C(=O)O ; wanted: its solubility at 24 h
Reply: 148

* * *

Assay: Phase 1 single dose study, immediate release formulations: plasma pharmacokinetics
Assay type: in vivo, human
Conditions: male, human, plasma, oral; 20 mg single dose, Fasted, 1 × 20 mg tablet, Group 1, N = 6; Geomean
METRIC: AUC(0-inf) (ng·h/mL)
One number for each entry, in ng·h/mL.

Query: Quick one: AUC(0-inf) of CC(C)(Sc1ccncc1-c1ccc(C#N)c2ccccc12)C(=O)O ?
Reply: 540

* * *

Test: Phase 1 single dose study, immediate release formulations: plasma pharmacokinetics
Type: in vivo, human
Conditions: male, human, plasma, oral, 40 mg, 40 mg/Fasted, immediate release; read-out: AUC0-24
METRIC: AUC(0-t) (ng·h/mL)
One number for each entry, in ng·h/mL.

Query: Which AUC(0-t) value belongs to CC(C)(Sc1ccncc1-c1ccc(C#N)c2ccccc12)C(=O)O ?
Reply: 1070

* * *

Assay: aqueous equilibrium solubility at 37° C.
Type: physicochemical
Conditions: aqueous media, pH 1, simulated gastric fluid, thermodynamic from solid, 0.1N HCl, pH initial 1.1, pH (24 h) 1.0, read-out: Solubility after 24 hours
METRIC: solubility at 24 h (µg/mL)
One number for each entry, in µg/mL.

Query: Look up solubility at 24 h: CC(C)(Sc1ccncc1-c1ccc(C#N)c2ccccc12)C(=O)O
Reply: 1480

* * *

Assay: aqueous equilibrium solubility at 37° C.
Format: physicochemical
Details: aqueous media, pH 1.6, simulated gastric fluid, thermodynamic from solid, SGF pH 1.6, pH initial 1.6, pH (24 h) 1.4, read-out: Solubility after 24 hours
METRIC: solubility at 24 h (µg/mL)
Answers are plain numbers, in µg/mL.

Query: If you can, please state the reported solubility at 24 h value of CC(C)(Sc1ccncc1-c1ccc(C#N)c2ccccc12)C(=O)O .
Reply: 415

* * *

Assay: aqueous equilibrium solubility at 37° C.
Format: physicochemical
Conditions: aqueous media, pH 4.5, aqueous buffer, thermodynamic from solid, Acetate pH 4.5, pH initial 4.6, pH (24 h) 4.5, read-out: Solubility after 24 hours
METRIC: solubility at 24 h (µg/mL)
Give bare numbers, in µg/mL.

Query: # query: solubility at 24 h of entry CC(C)(Sc1ccncc1-c1ccc(C#N)c2ccccc12)C(=O)O
Reply: 70
